Exercise: for every item that follows, state its recorded IC50.
target: purified recombinant human PARP (Homo sapiens, UniProt P09874); assay: PARP enzyme assay (IC50), [3H]NAD incorporation; conditions: approximate IC50 values
Sequence (P09874 whole entry): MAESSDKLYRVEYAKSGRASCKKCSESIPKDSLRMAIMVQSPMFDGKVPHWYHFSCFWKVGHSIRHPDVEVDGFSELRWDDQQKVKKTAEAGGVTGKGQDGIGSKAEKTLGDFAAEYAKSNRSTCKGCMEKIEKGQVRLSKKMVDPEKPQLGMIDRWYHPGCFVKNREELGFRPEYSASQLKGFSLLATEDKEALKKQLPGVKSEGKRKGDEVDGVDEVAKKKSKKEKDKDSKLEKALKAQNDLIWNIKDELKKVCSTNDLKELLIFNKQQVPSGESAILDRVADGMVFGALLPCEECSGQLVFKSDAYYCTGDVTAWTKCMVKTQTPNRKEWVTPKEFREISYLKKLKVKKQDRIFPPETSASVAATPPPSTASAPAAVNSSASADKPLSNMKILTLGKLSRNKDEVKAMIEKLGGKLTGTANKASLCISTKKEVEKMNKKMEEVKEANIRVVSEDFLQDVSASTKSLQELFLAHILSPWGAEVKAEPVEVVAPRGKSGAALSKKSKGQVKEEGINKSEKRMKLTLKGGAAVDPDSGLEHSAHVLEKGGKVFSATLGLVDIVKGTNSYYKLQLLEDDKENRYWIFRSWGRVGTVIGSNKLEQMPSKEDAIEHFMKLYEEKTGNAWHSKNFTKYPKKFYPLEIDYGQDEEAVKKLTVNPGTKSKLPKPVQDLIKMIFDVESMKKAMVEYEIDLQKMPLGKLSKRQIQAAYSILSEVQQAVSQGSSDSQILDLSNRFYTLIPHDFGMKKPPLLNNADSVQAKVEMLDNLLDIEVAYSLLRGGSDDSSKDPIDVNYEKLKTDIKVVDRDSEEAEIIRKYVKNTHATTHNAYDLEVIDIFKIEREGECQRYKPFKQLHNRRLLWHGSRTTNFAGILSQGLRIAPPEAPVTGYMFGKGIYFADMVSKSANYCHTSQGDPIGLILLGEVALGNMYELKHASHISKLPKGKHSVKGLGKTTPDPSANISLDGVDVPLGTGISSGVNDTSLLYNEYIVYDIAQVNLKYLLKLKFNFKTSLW
Use nM as the unit, but write only the number.

Entry `Cc1cc2c(c(S(=O)(=O)O)c1)Oc1cccc3c(=O)[nH]nc-2c13` ; IC50 = 2030

What the record says about CC(=O)OC(C(=O)O)C(OC(C)=O)C(=O)Nc1ccc2c(c1)-c1n[nH]c(=O)c3cccc(c13)O2 (centres unmarked) : IC50 is 18

The reported value for `O=c1[nH]nc2c3c(cccc13)Oc1ccc(S(=O)(=O)NCCN(CCO)CCO)cc1-2` in terms of IC50 is 158

Query CN1CCN(S(=O)(=O)c2ccc3c(c2)C2CNC(=O)c4cccc(c42)O3)CC1 (centres unmarked) yields IC50 of 233

response.value for `O=c1[nH]nc2c3c(cccc13)Oc1ccc(COc3cccnc3)cc1-2` (field: IC50) = 54

# molecule O=C1NCC2c3cc(S(=O)(=O)O)ccc3Oc3cccc1c32 (centres unmarked) ; its IC50 = 161

Record O=C(O)C(O)C(O)C(=O)Nc1ccc2c(c1)-c1n[nH]c(=O)c3cccc-2c13 (centres unmarked) . Reported IC50: 65

The molecule O=C1NN=C2C3C=CC=CC3[S+]([O-])C3=CC=CC1C32 (centres unmarked) showed IC50 equal to 340

`O=c1[nH]nc2c3c(cccc13)Oc1c-2ccc2ccccc12` has a reported IC50 of 40000

// field: IC50; key: `O=C(O)CCC(=O)Nc1ccc2c(c1)-c1n[nH]c(=O)c3cccc-2c13` ; value = 29

Lab note: O=C(O)C(O)C(O)C(=O)Nc1ccc2c(c1)-c1n[nH]c(=O)c3cccc(c13)O2 (centres unmarked) gave IC50 of 23

get_value(item= `O=c1[nH]nc2c3c(cccc13)Oc1ccc(NS(=O)(=O)O)cc1-2` , readout=IC50) returns 25

For record `O=c1[nH]nc2c3c(cccc13)Oc1ccc(CN3CCOCC3)cc1-2` the listed IC50 is 75

Just so you know, measured IC50 for `O=c1[nH]nc2c3c(cccc13)Oc1ccc(CN3CCN(c4ccccn4)CC3)cc1-2` came out at 77

The recorded IC50 for entry O=c1[nH]nc2c3c(cccc13)Oc1ccc(S(=O)(=O)NC3CN4CCC3CC4)cc1-2 (centres unmarked) equals 37

Kindly note the recorded IC50 for `Cc1cc2c(c(-n3nc4ccccc4n3)c1)Oc1cccc3c(=O)[nH]nc-2c13` , which is 25000

Value of measured IC50 for the entry `CN(C)c1cccc(OCc2ccc3c(c2)-c2n[nH]c(=O)c4cccc(c24)O3)c1` : 128

Just so you know, measured IC50 for `CCCCN(C)Cc1ccc2c(c1)-c1n[nH]c(=O)c3cccc(c13)O2` came out at 120

Lab note: measured IC50 of `CCOP(=O)(Nc1ccc2c(c1)-c1n[nH]c(=O)c3cccc(c13)O2)OCC` was 199

Looking up CC(=O)OC(C(=O)O)C(OC(C)=O)C(=O)Nc1ccc2c(c1)-c1n[nH]c(=O)c3cccc-2c13 (centres unmarked) , I found its IC50 recorded as 59

----------
molecular target: purified recombinant human PARP (Homo sapiens); assay: PARP enzyme assay (IC50), [3H]NAD incorporation; settings: approximate IC50 values
readout_name: log10(IC50) (log10 of the value in nM)
The common logarithm of IC50 in nM is what is listed.

// recorded log10(IC50) for `O=C(O)c1cccc(S(=O)(=O)Nc2ccc3c(c2)-c2n[nH]c(=O)c4cccc-3c24)c1` : 1.72

get_value(item= O=C1NCC2c3cc(S(=O)(=O)NCCN4CCCCC4)ccc3Oc3cccc1c32 (centres unmarked) , readout=log10(IC50)) returns 2.56

Lab book: log10(IC50) of `O=C(O)CCC(=O)Nc1ccc2c(c1)-c1n[nH]c(=O)c3cccc(c13)O2` noted as 1.32

Entry `O=c1[nH]nc2c3c(cccc13)Oc1ccc(CN3CCN(Cc4ccccc4)CC3)cc1-2` , log10(IC50) reported as 1.64

Per the record, `O=c1[nH]nc2c3c(cccc13)Oc1ccc(S(=O)(=O)NCCN3CCOCC3)cc1-2` has log10(IC50) of 1.91

Lookup result for `O=c1[nH]nc2c3c(cccc13)Oc1ccc(CN3CCCCC3)cc1-2` ; measured log10(IC50): 1.86

log10(IC50) reported for this compound `O=c1[nH]nc2c3c(cccc13)Oc1ccc(CN3CCN(c4ccccc4)CC3)cc1-2` : 1.79

// log10(IC50) value for O=C1NCC2c3cc(S(=O)(=O)NN4CCOCC4)ccc3Oc3cccc1c32 (centres unmarked) : 2.16

Measured log10(IC50), `NCCSCc1ccc2c(c1)-c1n[nH]c(=O)c3cccc(c13)O2` : 1.45

So, `O=c1[nH]nc2c3c(cccc13)Oc1ccc(S(=O)(=O)NCCN3CCCCC3)cc1-2` ? Its log10(IC50) was 2.28

So for `CN(C)CCN(C)Cc1ccc2c(c1)-c1n[nH]c(=O)c3cccc(c13)O2` , the logged log10(IC50) turned out to be 1.93

The reported value for `CCN(CC)CCNS(=O)(=O)c1ccc2c(c1)-c1n[nH]c(=O)c3cccc-2c13` in terms of log10(IC50) is 2.59

`O=c1[nH]nc2c3c(cccc13)Oc1ccc(CSc3ccncc3)cc1-2` yielded log10(IC50) of 1.23

Short answer for `NNC(=O)c1cc(OCc2ccc3c(c2)-c2n[nH]c(=O)c4cccc(c24)O3)cc(C(=O)NN)c1` : log10(IC50) was 1.60

In plain terms, `CN1CCN(S(=O)(=O)c2ccc3c(c2)-c2n[nH]c(=O)c4cccc(c24)O3)CC1` has a documented log10(IC50) of 2.32

Lab note: measured log10(IC50) of `NCNCc1ccc2c(c1)-c1n[nH]c(=O)c3cccc(c13)O2` was 1.65

Lab note: `CN(C)Cc1ccc2c(c1)-c1n[nH]c(=O)c3cccc(c13)O2` gave log10(IC50) of 1.23

Kindly note the recorded log10(IC50) for COC(=O)C1CCCCN1S(=O)(=O)c1ccc2c(c1)C1CNC(=O)c3cccc(c31)O2 (centres unmarked) , which is 2.77

log10(IC50) in this record for `O=c1[nH]nc2c3c(cccc13)-c1ccc(S(=O)(=O)NCCN3CCOCC3)cc1-2` : 2.53

log10(IC50) in this record for `O=c1[nH]nc2c3c(cccc13)Oc1ccc(-c3nc4ccccc4nc3-c3ccccc3)cc1-2` : 2.00

----------
biological target: purified recombinant human PARP (Homo sapiens, UniProt P09874); test: PARP enzyme assay (IC50), [3H]NAD incorporation; conditions: approximate IC50 values
pIC50: −log10 of the molar value.
Entry flag: label 1 if pIC50 reaches 7; label 0 if it does not.

Is reported pIC50 greater than or equal to 7 here: `NNC(=O)c1ccc(OCc2ccc3c(c2)-c2n[nH]c(=O)c4cccc(c24)O3)cc1` label 1

In plain terms: is recorded pIC50 at least 7 for `CS(=O)(=O)Nc1ccc2c(c1)-c1n[nH]c(=O)c3cccc(c13)O2` ? label 0

Entry `O=c1[nH]nc2c3c(cccc13)Oc1ccc(S(=O)(=O)NCCCN3CCOCC3)cc1-2` : is its pIC50 no less than 7? label 0

Check if pIC50 >= 7 (inclusive). Item: `N#CCc1ccc2c(c1)-c1n[nH]c(=O)c3cccc(c13)O2` label 1

Has `O=c1[nH]nc2c3c(cccc13)Oc1ccc(S(=O)(=O)O)cc1-2` a recorded pIC50 greater than or equal to 7? label 1

Is it the case that `CC(=O)Nc1ccc2c(c1)-c1n[nH]c(=O)c3cccc(c13)O2` has pIC50 reaching or exceeding 7? label 1

Would you say `O=C(O)[C@@H]1CCCN1S(=O)(=O)c1ccc2c(c1)-c1n[nH]c(=O)c3cccc(c13)O2` shows pIC50 at minimum 7? label 1

----------
target: purified recombinant human PARP (Homo sapiens, UniProt P09874); assay: PARP enzyme assay (IC50), [3H]NAD incorporation; settings: approximate IC50 values
readout_name: pIC50
The value called pIC50 is obtained by taking minus log10 of the concentration in mol/L.

Bench note, purified recombinant human PARP (Homo sapiens, UniProt P09874): `CC(=O)Nc1ccc2c(c1)-c1n[nH]c(=O)c3cccc-2c13` , pIC50 reads 7.16

purified recombinant human PARP (Homo sapiens, UniProt P09874) pIC50 of `O=c1[nH]nc2c3c(cccc13)Oc1ccc(S(=O)(=O)NCCc3ccncc3)cc1-2` is 7.05

Known value: purified recombinant human PARP (Homo sapiens, UniProt P09874) pIC50 of the molecule `O=c1[nH]nc2c3c(cccc13)Oc1cc3ccccc3cc1-2` equals 6.86
